Each entry below carries its reported pIC50.
target: HCV NS5B RdRp genotype 1b (Hepatitis C virus genotype 1b); construct: The protein was expressed with an 18 amino acid C-terminal truncation to enhance the solubility; assay: Modified HCV NS5B RdRp enzyme assay (preincubation protocol)
Sequence (Q9WMX2 2420-2992): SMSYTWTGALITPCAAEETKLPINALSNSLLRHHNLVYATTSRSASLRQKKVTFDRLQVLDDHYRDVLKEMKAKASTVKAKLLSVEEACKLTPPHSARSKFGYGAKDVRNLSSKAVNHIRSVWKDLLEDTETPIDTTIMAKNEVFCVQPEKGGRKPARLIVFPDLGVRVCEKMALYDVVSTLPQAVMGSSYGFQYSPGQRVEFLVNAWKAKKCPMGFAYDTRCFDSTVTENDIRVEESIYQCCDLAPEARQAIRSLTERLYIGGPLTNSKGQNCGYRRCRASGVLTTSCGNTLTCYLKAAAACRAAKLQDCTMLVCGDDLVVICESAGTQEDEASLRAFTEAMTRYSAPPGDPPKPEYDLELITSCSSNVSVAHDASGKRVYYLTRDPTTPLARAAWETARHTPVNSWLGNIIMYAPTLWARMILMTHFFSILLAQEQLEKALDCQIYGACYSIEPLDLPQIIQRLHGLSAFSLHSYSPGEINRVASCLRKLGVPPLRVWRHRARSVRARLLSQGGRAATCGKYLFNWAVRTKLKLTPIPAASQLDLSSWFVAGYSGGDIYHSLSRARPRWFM
pIC50: −log10 of the molar value.

Examples with their reported pIC50 follow.
{"CHEM SMILES": "COc1ccc2c(c1)C=C(C(=O)N1C3CCC1CN(C)C3)Cn1c-2c(C2CCCCC2)c2ccc(C(=O)O)cc21", "TEST VALUE": "6.30 to 9.00"}
{"CHEM SMILES": "COc1cccc2c1C=C(C(=O)N1CC3CCC(C1)N3)Cn1c-2c(C2CCCCC2)c2ccc(C(=O)NS(=O)(=O)N(C)C)cc21", "TEST VALUE": "6.30 to 9.00"}

Query: State the recorded pIC50 for this entry: COC(=O)c1ccc2c(C3CCCCC3)c3n(c2c1)CC(C(=O)N1C2CCC1CN(C)C2)=Cc1c(OC(F)(F)F)cccc1-3
Response: < 6.30

----------
molecular target: HCV NS5B RdRp genotype 1b (Hepatitis C virus genotype 1b); construct: The protein was expressed with an 18 amino acid C-terminal truncation to enhance the solubility; assay: Modified HCV NS5B RdRp enzyme assay (preincubation protocol)
This listing pairs molecules with measured IC50.

Worked cases, IC50 given:
{"MOLECULE": "COc1ccc2c(c1)C=C(C(=O)N1CC3CCC(C1)N3C(=O)OC(C)(C)C)Cn1c-2c(C2CCCCC2)c2ccc(C(=O)NS(=O)(=O)N(C)C)cc21", "IC50": "1 to 500 nM"}
{"MOLECULE": "COC(=O)c1ccc2c(C3CCCCC3)c3n(c2c1)CC(C(=O)N1C2CCC1CN(C)C2)=Cc1cc(OC)ccc1-3", "IC50": "> 500 nM"}
{"MOLECULE": "COc1ccc2c(c1)C=C(C(=O)N1CC3CCC(C1)N3C)Cn1c-2c(C2CCCCC2)c2ccc(C(=O)NS(=O)(=O)N(C)C)cc21", "IC50": "1 to 500 nM"}

Query: Given COc1ccc2c(c1)C=C(C(=O)N1C3CCC1CN(C)C3)Cn1c-2c(C2CCCCC2)c2ccc(C(=O)NS(=O)(=O)N(C)C)cc21 [drawing 16] , state its recorded IC50.
Response: 1 to 500 nM

----------
target: HCV NS5B RdRp genotype 1b (Hepatitis C virus genotype 1b); construct: The protein was expressed with an 18 amino acid C-terminal truncation to enhance the solubility; assay: Modified HCV NS5B RdRp enzyme assay (preincubation protocol)
pIC50: −log10 of the molar value.
OUTCOME MEASURE: pIC50

{"CHEM SMILES": "COc1cccc2c1C=C(C(=O)N1CC3CCC(C1)N3C)Cn1c-2c(C2CCCCC2)c2ccc(C(=O)NS(=O)(=O)N(C)C)cc21", "SUBJECT OF TEST": "HCV NS5B RdRp genotype 1b (Hepatitis C virus genotype 1b)", "pIC50": "6.30 to 9.00"}

Query: So what's the measured pIC50 for this one? CN1CC2CCC(C1)N2C(=O)C1=Cc2c(OC(C)(F)F)cccc2-c2c(C3CCCCC3)c3ccc(C(=O)NS(=O)(=O)N(C)C)cc3n2C1
Response: < 6.30

Query: // same read-out, input: COc1cccc2c1C=C(C(=O)N1C3CCC1CN(C)C3)Cn1c-2c(C2CCCCC2)c2ccc(C(=O)NS(=O)(=O)N(C)C)cc21
Response: 6.30 to 9.00

Query: Okay, and COc1ccc2c(c1)C=C(C(=O)N1CC3CCC(C1)N3)Cn1c-2c(C2CCCCC2)c2ccc(C(=O)NS(=O)(=O)N(C)C)cc21 ?
Response: 6.30 to 9.00
